# STUDY_TARGET: T1, biotinylated human VWF cysteine knot (CK) domain construct (human, UniProt P04275 2724-2813, biotinylated in vitro (BirA) on the biotinylation tag; one N-glycan)
# T1 construct: Expressed in HEK293 EBNA cells; disulfide-linked homodimer; also called human VWF CK; human VWF CK domain; not shown: in vitro biotinylation tag, HRV-3C site and 3 VWF residues before the CK domain
# METHOD_NOTES: SPR, scFv captured via anti-SV5, CK domain injected, pH 7.4, apparent Kd;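 further: scFvs from crude yeast supernatants printed on an amine-coupled anti-SV5 lawn, Kd computed as koff over kon, likely overestimating affinity because the CK construct is dimeric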
Label T when Kd is strictly below 2 nM; otherwise label F.

Before answering, review these 5 worked examples.
* Lib6_P3_B9_scFv (scFv, VH-linker-VL; not shown: C-terminal 3xFLAG and SV5 tags) scFv: EVQLVQSGAEVKKPGASVKVSCKASGDTFSSHVISWVRQAPGQGLEWMGGINPRTGTTIYAQKLQGRGTMTTDPSTSTAYMELRSLRSDDTAVYYCARTRPWAGLDVWGQGTTVTVSSSGGSTITSYNVYYTKLSSSGTESALTQPASVSGSPGQSITISCTGTNIEYKGVSWYQQHPGKAPKLMIYGVDKRPSGVSNRFSGSKSGNTASLTISGLQAEDEADYYCQAWGTSTAIFGGGTKLTVL | T
* 15244_Lib8_scFv (scFv, VH-linker-VL; not shown: C-terminal 3xFLAG and SV5 tags) scFv: EVQLVESGGGLVQPGRSLRLSCAASGFTFADYDMHWVRQAPGKGLEWVSATSSHGVTTDYADSVEGRFTISRDNAKNSLYLQMNSLRAEDTAVYYCARGAWSGIAARQYIDYWGQGTLVTVSSSGGSTITSYNVYYTKLSSSGTDIQMTQSPSSLSASVGDRVTITCRASQTIGYWLAWYQQKPGKAPKLLIYDASVPESGVPSRFSGSGSGTDFTLTISSLQPEDVATYYCQQSYSYPLTFGGGTKVEIK | F
* 4675_Lib4_scFv (scFv, VH-linker-VL; not shown: C-terminal 3xFLAG and SV5 tags) scFv: QVQLQESGPGLVKPSQTLSLTCTVSGFSLTSHPEGVNWIRQPPGKGLEWIGYIAHSGTTDYNPSLKSRVTMSVDTSKNQFSLKVNSVTAADTAVYYCARAYGDSDAFDIWGQGTMVTVSSSGGSTITSYNVYYTKLSSSGTEIVMTQSPATLSLSPGERATLSCRASQSIGRNLAWYQQKPGQAPRLLIYGASKRVTGIPARFSGSGSGTDFTLTISSLEPEDFAVYYCQQYSTWPTFGGGTKVEIK | F
* Lib1_P1_F10_scFv (scFv, VH-linker-VL; not shown: C-terminal 3xFLAG and SV5 tags) scFv: QVQLVQSGAEVKKPGASVKVSCKVSGYTFSSSGIHWVRQAPGKGLEWMGGIFPNFGTAIYAQKFQGRVTMTEDTSTDTAYMELSSLKSEDTAVYYCARESDFWSGSFTNWGQGTLVTVSSSGGSTITSYNVYYTKLSSSGTDIQMTQSPSSVSASVGDRVTITCRASRSIGNWLAWYQQKPGKAPKLLIYDAFNRASGVPSRFSGSGSGTDFTLTISSLQPEDFANYYCQQSYSTLPRYSFGGGTKVEIK | F
* Lib4_P2_B1_scFv (scFv, VH-linker-VL; not shown: C-terminal 3xFLAG and SV5 tags) scFv: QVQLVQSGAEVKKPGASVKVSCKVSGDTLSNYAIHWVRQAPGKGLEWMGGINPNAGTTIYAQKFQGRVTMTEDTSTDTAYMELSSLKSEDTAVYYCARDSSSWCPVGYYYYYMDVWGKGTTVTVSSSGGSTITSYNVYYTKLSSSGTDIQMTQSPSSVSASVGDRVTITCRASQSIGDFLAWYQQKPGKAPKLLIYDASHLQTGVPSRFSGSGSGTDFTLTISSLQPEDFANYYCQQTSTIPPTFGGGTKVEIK | T

Now look at this entry.
Enquiry: Determine if 11485_Lib1_scFv (scFv, VH-linker-VL; not shown: C-terminal 3xFLAG and SV5 tags) scFv: QVQLVQSGAEVKKPGASVKVSCKVSGAPSAAIIHWVRQAPGKGLEWMGGFTQIFGTAIYAQKFQGRVTMTEDTSTDTAYMELSSLKSEDTAVYYCAREGIGGHDAFDIWGQGTMVTVSSSGGSTITSYNVYYTKLSSSGTDIQMTQSPSSVSASVGDRVTITCRASQDISKNLAWYQQKPGKAPKLLIYKASKLESGVPSRFSGSGSGTDFTLTISSLQPEDFANYYCLHDYTYPPTFGGGTKVEIK shows Kd strictly lower than 2 nM.
Return: F

Entry source: patent US20250154283A1
